assay: inhibitors of intracellular T. cruzi replication, confirmation, NIH3T3 host cells, beta-gal parasites, cherry-pick, set 2 (AID 651740);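 note: plate controls were neutral control median for no effect and positive control median for full effect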; conditions: T. cruzi beta-gal in NIH3T3, GalScreen luminescence, 90 h; at 2.09 µM
Out of some 5,600 compounds screened, about 1,200 (21%) were called active. Not shown: some 3% with an inconclusive outcome.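 Rule for the calls: active = mean inhibition above about 95%, with at least 55% of replicates also reaching it (limit read from the data); inconclusive = meets just one of the two conditions; inactive = meets neither condition.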 The list is a sample of the results.
API: response.call in active, inactive

Record excerpt, results attached:
SMILES TEXT | LABEL VALUE
O=C(c1cnccn1)N1CC[C@@H]2[C@H](CO)Nc3ccc(-c4cccc(F)c4)cc3[C@@H]21 | inactive
Cc1ccc(S(=O)(=O)N(C)C[C@@H]2OCCCC[C@@H](C)Oc3ccc(NS(=O)(=O)c4ccc(F)cc4)cc3C(=O)N([C@H](C)CO)C[C@H]2C)cc1 | inactive
C[C@@H]1CN([C@H](C)CO)C(=O)c2cc(NS(=O)(=O)c3cccs3)ccc2O[C@@H](C)CCCCO[C@H]1CN(C)Cc1ccc(C(F)(F)F)cc1 | active
O=S(=O)(c1ccccc1)N1CC[C@@H]2[C@H]1c1cc(C#Cc3cccc(F)c3)ccc1N[C@@H]2CO | inactive
O=C(C1CCCC1)N1CCCCN2[C@@H](CO)[C@H](c3ccc(-c4cccc(F)c4)cc3)[C@@H]2C1 | inactive
CNC[C@H]1OCCCC[C@@H](C)Oc2ccc(NS(C)(=O)=O)cc2C(=O)N([C@H](C)CO)C[C@H]1C | inactive
COc1ccc(S(=O)(=O)Nc2ccc3c(c2)C(=O)N([C@H](C)CO)C[C@@H](C)[C@@H](CN(C)CC2CCCCC2)OCCCC[C@@H](C)O3)cc1 | active
C[C@@H]1CCCCO[C@H](CN(C)C(=O)NC2CCCCC2)[C@H](C)CN([C@H](C)CO)C(=O)c2cc(NS(=O)(=O)c3ccc(Cl)cc3)ccc2O1 | inactive
O=S(=O)(c1ccccc1)N1CC[C@@H]2[C@@H](CO)Nc3ccc(C#Cc4cccc(F)c4)cc3[C@@H]21 | active
COCCNC[C@@H]1[C@H](c2ccccc2)[C@H](CO)N1c1nc(C)c(C)s1 | inactive

What is the recorded call for this molecule in the test? OC[C@@H]1Nc2ccc(-c3cccc(F)c3)cc2[C@H]2[C@@H]1CCN2Cc1ccncc1
inactive

# iterate: C[C@H](CO)N1C[C@H](C)[C@H](CN(C)Cc2ccc(C(F)(F)F)cc2)Oc2ccc(NS(=O)(=O)c3ccc(Cl)cc3)cc2C1=O
inactive

Cool, now O=C(Cc1ccccc1)N1CC[C@H]2[C@H](CO)Nc3ccc(-c4ccccc4F)cc3[C@H]21
inactive

---

test: inhibitors of intracellular T. cruzi replication, confirmation, NIH3T3 host cells, beta-gal parasites, cherry-pick, set 2 (AID 651740); conditions: T. cruzi beta-gal in NIH3T3, GalScreen luminescence, 90 h; at 2.09 µM; active compounds read high
Screen size: about 5,600 compounds; about 1,200 (21%) were called active. Inconclusive results (about 3%) are left out. These entries were drawn from the full list.
MEASURED QUANTITY: inhibition (%)
Report the value in % with no unit label.

SMILES TEXT | inhibition, %
C[C@@H]1CCCCO[C@H](CN(C)Cc2ccc(C(F)(F)F)cc2)[C@H](C)CN([C@H](C)CO)C(=O)c2cc(NC(=O)Nc3ccc(F)cc3)ccc2O1 | 117
C[C@H]1CCCCO[C@@H](CN(C)C(=O)NC2CCCCC2)[C@@H](C)CN([C@@H](C)CO)C(=O)c2cc(NS(=O)(=O)c3ccc(Cl)cc3)ccc2O1 | 68

What does the record list as inhibition for C[C@@H]1CN([C@H](C)CO)C(=O)c2cc(NC(=O)Nc3ccc(F)cc3)ccc2O[C@@H](C)CCCCO[C@@H]1CN(C)CC1CCCCC1 ?
104

Likewise for C[C@@H]1CCCCO[C@@H](CN(C)CC2CC2)[C@H](C)CN([C@H](C)CO)C(=O)c2cc(NC(=O)C3CCCCC3)ccc2O1 ?
89.3

Ok, now C[C@@H]1CCCCO[C@H](CN(C)C(=O)NC2CCCCC2)[C@H](C)CN([C@H](C)CO)C(=O)c2cc(NC(=O)Nc3ccc(F)cc3)ccc2O1
105

Param item: C[C@@H]1CCCCO[C@H](CN(C)Cc2ccccc2)[C@@H](C)CN([C@@H](C)CO)C(=O)c2cc(NC(=O)Nc3ccc(F)cc3)ccc2O1
103

---

experiment: inhibitors of intracellular T. cruzi replication, confirmation, NIH3T3 host cells, beta-gal parasites, cherry-pick, set 2 (AID 651740);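 note: plate controls were neutral control median for no effect and positive control median for full effect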; details: T. cruzi beta-gal in NIH3T3, GalScreen luminescence, 90 h; at 2.09 µM; active compounds read high
Hit rate of the full screen: of about 5,600 compounds, about 1,200 (21%) were called active. Roughly 3% stayed inconclusive and do not appear here. Only a sample is shown.
Each entry below carries its reported inhibition.
Your answer should be a plain number; it is taken to be in %.

Answered examples (6):
SMILES TEXT | inhibition / %
Cc1noc(C)c1S(=O)(=O)Nc1ccc2c(c1)C(=O)N([C@@H](C)CO)C[C@@H](C)[C@H](CN(C)S(=O)(=O)c1ccc(Cl)cc1)OCCCC[C@H](C)O2 | 62.5
C[C@@H]1CCCCO[C@@H](CN(C)S(=O)(=O)c2ccc(Cl)cc2)[C@H](C)CN([C@@H](C)CO)C(=O)c2cc(NC(=O)Cc3ccccc3)ccc2O1 | 80.6
C[C@H](CO)N1C[C@H](C)[C@@H](CN(C)Cc2ccncc2)Oc2cc(Br)ccc2S1(=O)=O | 92.7
COc1ccc(NC(=O)Nc2ccc3c(c2)C(=O)N([C@H](C)CO)C[C@H](C)[C@H](CN(C)S(=O)(=O)c2ccc(Cl)cc2)OCCCC[C@H](C)O3)cc1 | 107
C[C@H](CO)N1C[C@H](C)[C@H](CN(C)Cc2cccnc2)Oc2cc(C#CC3CCCC3)ccc2S1(=O)=O | 82.9
CC(C)(C)[S@@](=O)N1Cc2cc(C(=O)NCc3ccc4c(c3)OCO4)nc(-c3cccc(-c4ccccc4)c3)c2[C@H]1CCO | 91.6

inhibition lookup needed for CC(C)NC(=O)Nc1ccc2c(c1)C(=O)N([C@@H](C)CO)C[C@H](C)[C@H](CN(C)S(=O)(=O)c1ccc(Cl)cc1)OCCCC[C@H](C)O2 , thanks.
99.7

For C[C@H]1CCCCO[C@@H](CN(C)S(=O)(=O)c2cccs2)[C@@H](C)CN([C@@H](C)CO)C(=O)c2cc(NS(=O)(=O)c3ccc(Cl)cc3)ccc2O1 then?
71

---

assay: inhibitors of intracellular T. cruzi replication, confirmation, NIH3T3 host cells, beta-gal parasites, cherry-pick, set 2 (AID 651740);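 note: plate controls were neutral control median for no effect and positive control median for full effect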; settings: T. cruzi beta-gal in NIH3T3, GalScreen luminescence, 90 h; at 2.09 µM; active compounds read high
Out of some 5,600 compounds screened, about 1,200 (21%) were called active. About 3% were inconclusive and are not listed. Not all results are given here.
inhibition of 60% or higher: y. Under 60%: n.

# example entries with known answers
SMILES TEXT | LABEL VALUE
CCCC#Cc1ccc2c(c1)O[C@@H](CN(C)C(=O)c1ccccc1F)[C@H](C)CN([C@H](C)CO)S2(=O)=O | n
Cc1ccccc1-c1ccc([C@@H]2[C@H](CO)N3CCCCN(S(=O)(=O)c4ccc(F)cc4)C[C@@H]23)cc1 | y
COc1ccc(CN(C)C[C@H]2Oc3ccc(NS(=O)(=O)c4ccc(Cl)cc4)cc3CC(=O)N([C@@H](C)CO)C[C@H]2C)cc1 | n
C[C@@H]1CN([C@H](C)CO)C(=O)c2cccc(NC(=O)NC3CCCCC3)c2O[C@H]1CN(C)Cc1ccc(C(F)(F)F)cc1 | y
Cc1noc(C)c1S(=O)(=O)Nc1ccc2c(c1)C(=O)N([C@@H](C)CO)C[C@H](C)[C@@H](CN(C)C(=O)Nc1cccc3ccccc13)OCCCC[C@H](C)O2 | n

In plain terms: is recorded inhibition at least 60% for O=C(C1CCC1)N1CCCCN2[C@H](CO)[C@H](c3ccc(-c4ccncc4)cc3)[C@@H]2C1 ?
n

Also need Cc1cc(C(=O)Nc2cccc3c2O[C@@H](CN(C)Cc2ccc(C(=O)Nc4ccccc4N)cc2)[C@H](C)CN([C@@H](C)CO)C3=O)n(C)n1 , thanks.
y

---

experiment: inhibitors of intracellular T. cruzi replication, confirmation, NIH3T3 host cells, beta-gal parasites, cherry-pick, set 2 (AID 651740);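 note: plate controls were neutral control median for no effect and positive control median for full effect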; conditions: T. cruzi beta-gal in NIH3T3, GalScreen luminescence, 90 h; at 2.09 µM; active compounds read high
Among all 5,600 compounds or so, about 1,200 (21%) were called active. About 3% were inconclusive and are not listed. Only a sample is shown.
# Lookup of reported inhibition keyed by entry
Hi! Could you send only the number? It should be in %, unit omitted.

Previously resolved entries follow.
SMILES TEXT | MEASURED VALUE
C[C@H]1CN([C@@H](C)CO)S(=O)(=O)c2ccc(C3=CCCC3)cc2O[C@@H]1CN(C)Cc1ccccc1 | 68
C[C@H]1CN([C@@H](C)CO)S(=O)(=O)c2ccc(C#CCN(C)C)cc2O[C@@H]1CN(C)Cc1ccc(F)cc1 | 93.3
C[C@@H]1CN([C@H](C)CO)C(=O)c2cccc(NC(=O)c3ccc(-c4nccs4)cc3)c2O[C@@H]1CN(C)C(=O)Nc1ccc(C(F)(F)F)cc1 | 53
CCCC#Cc1ccc2c(c1)O[C@H](CN(C)C(=O)CC)[C@@H](C)CN([C@H](C)CO)S2(=O)=O | 38.5
Cc1cccc(-c2ccc([C@H]3[C@@H](CO)N4CCCCN(Cc5cncnc5)C[C@H]34)cc2)c1 | 48.1

Endpoint output: inhibition of C[C@@H]1CN([C@H](C)CO)C(=O)c2cccc(NC(=O)c3cnccn3)c2O[C@@H]1CN(C)Cc1ccc(C(=O)Nc2ccccc2N)cc1 . Value?
82.4

Thanks! And C[C@@H]1CN([C@@H](C)CO)S(=O)(=O)c2ccc(C#Cc3ccccc3)cc2O[C@@H]1CN(C)C(=O)Nc1ccccc1 ?
99.8
